# Tested on: ragweed
# assay.method.text: Test C postemergence
# Format: in vivo, Ambrosia elation
# run.conditions: postemergence, 250 g ai/ha; scale 0 to 100 (0 no effect, 100 complete control)
# Excerpt: […]
For each entry below, report its Plant response rating, Ragweed value.
One number for each entry.

Worked set:
> print(dat)
                         chemical.structure                observation.type  observed.result
1  CCc1cc(C(=O)NCC(F)(F)F)nn1Cc1cc(OC(F)F)nn1C  Plant response rating, Ragweed               20
2  CCCc1cc(C(=O)NOCC)nn1Cc1ccnc(C(F)(F)F)c1  Plant response rating, Ragweed               30
3  CCOc1cc(C(=O)NC2CC2)nn1Cc1ccnc(C(F)(F)F)c1  Plant response rating, Ragweed               90
4  CCCc1cc(C(=O)NCC(F)(F)F)nn1Cc1cc(C(F)(F)F)nn1C  Plant response rating, Ragweed               60
5  CCc1cc(C(=O)NC2CC2)nn1Cc1ccnc(OCC(F)(F)F)c1  Plant response rating, Ragweed               45

Each compound below has a reported value. Please supply its Plant response rating, Ragweed.
1. CCc1cc(C(=O)NCC2CC2)nn1Cc1ccnc(C(F)(F)F)c1
2. CCCNC(=O)c1cc(CC)n(Cc2ccnc(OC(F)F)c2)n1

result:
1. 75
2. 90

----------
For each entry below, report its Plant response rating, Crabgrass, Large value.
# Test system: crabgrass, large
# assay.method.text: Test C postemergence
# Type: in vivo, Digitaria sanguinalis
# run.conditions: postemergence; 125 g ai/ha; scale 0 to 100, 0 no effect, 100 complete control
Answers are plain numbers.

Worked set:
> print(dat)
                                   molecule      assay.system                         observation.type  observed.result
1  CCCNC(=O)c1cc(CC)n(Cc2ccnc(OC(F)F)c2)n1 [Compound 132]  crabgrass, large  Plant response rating, Crabgrass, Large               75
2  CCOc1cc(C(=O)NCC(F)(F)F)nn1Cc1ccnc(C(F)(F)F)c1 [Compound 104]  crabgrass, large  Plant response rating, Crabgrass, Large               75
3  CCNC(=O)c1cc(CC)n(Cc2ccnc(C(F)(F)F)c2)n1 [Compound 196]  crabgrass, large  Plant response rating, Crabgrass, Large               10
4  CCOc1cc(C(=O)NC(C)C)nn1Cc1ccnc(C(F)(F)F)c1 [Compound 188]  crabgrass, large  Plant response rating, Crabgrass, Large               70
5  CCCc1cc(C(=O)NCC(F)(F)F)nn1Cc1cc(C(F)(F)F)nn1C [Compound 138]  crabgrass, large  Plant response rating, Crabgrass, Large               30
6  CCCc1cc(C(=O)NCC)nn1Cc1ccnc(C(F)(F)F)c1 [Compound 95]  crabgrass, large  Plant response rating, Crabgrass, Large               40

Each molecule below has a reported value. Please supply its Plant response rating, Crabgrass, Large.
1. CCc1cc(C(=O)NC2CC2)nn1Cc1ccnc(OCC(F)(F)F)c1 [Compound 200]
2. CCCc1cc(C(=O)NOCC)nn1Cc1ccnc(C(F)(F)F)c1 [Compound 185]
3. CCc1cc(C(=O)NCC(F)(F)F)nn1Cc1cc(OC(F)F)nn1C [Compound 206]

result:
10
5
5

----------
For each entry below, report its Corn plant response rating value.
# System: corn
# assay.method.text: Test A preemergence
# Format: in vivo, Zea mays
# run.conditions: preemergence, 500 g ai/ha, visual injury after approx. 10 days, 0 to 100 scale (0 no effect, 100 complete control)
Numbers only.

Worked set:
> print(dat)
                                   compound  observed.result
1  CCc1cc(C(=O)NC(C)C)nn1Cc1ccnc(C(F)(F)F)c1 [Compound 139]               90
2  CCCNC(=O)c1cc(COC)n(Cc2cc(C(F)(F)C(F)(F)F)nn2C)n1 [Compound 228]               30
3  CCNC(=O)c1cc(CC)n(Cc2ccnc(OC(F)F)c2)n1 [Compound 130]               90
4  CCc1cc(C(=O)NC2CC2)nn1Cc1ccnc(OCC(F)(F)F)c1 [Compound 200]               90

Now look at this one.
query: I would be grateful if you could share the reported Corn plant response rating for CCCNC(=O)c1cc(CCCl)n(Cc2ccnc(C(F)(F)F)c2)n1 [Compound 145] .
result: 60

----------
# Tested on: corn
# assay.method.text: Test C preemergence
# Type: in vivo, Zea mays
# run.conditions: preemergence, 62 g ai/ha; scale 0 to 100 (0 no effect, 100 complete control), 13 to 15 days
For each entry below, report its Corn plant response rating value.

Worked set:
> print(dat)
                         chemical.structure  observed.result
1  CCCc1cc(C(=O)NOCC)nn1Cc1ccnc(C(F)(F)F)c1               25
2  CCc1cc(C(=O)NC2CC2)nn1Cc1cc(C(F)(F)C(F)(F)F)nn1C               15
3  CCc1cc(C(=O)NC(C)C)nn1Cc1ccnc(C(F)(F)F)c1               30

query: I would be grateful if you could share the reported Corn plant response rating for `CCOc1cc(C(=O)NC2CC2)nn1Cc1ccnc(OC(F)F)c1` .
result: 25

----------
For each entry below, report its Plant response rating, Oilseed Rape value.
# Test system: oilseed rape
# assay.method.text: Test C postemergence
# Type: in vivo, Brassica napus
# run.conditions: postemergence, 250 g ai/ha; scale 0 to 100 (0 no effect, 100 complete control)
Numbers only.

> print(dat)
                         chemical.structure                     observation.type  observed.result
1  CCCc1cc(C(=O)NCC(F)(F)F)nn1Cc1cc(C(F)(F)F)nn1C  Plant response rating, Oilseed Rape               60
2  CCOc1cc(C(=O)NC(C)C)nn1Cc1ccnc(C(F)(F)F)c1  Plant response rating, Oilseed Rape               90
3    CCNC(=O)c1cc(CC)n(Cc2ccnc(OC(F)F)c2)n1  Plant response rating, Oilseed Rape               60
4  CCCNC(=O)c1cc(CCC)n(Cc2cc(C(F)(F)F)nn2C)n1  Plant response rating, Oilseed Rape               60
5  CCc1cc(C(=O)NC2CC2)nn1Cc1ccnc(OCC(F)(F)F)c1  Plant response rating, Oilseed Rape               60

Now look at this one.
query: I would be grateful if you could share the reported Plant response rating, Oilseed Rape for `CCNC(=O)c1cc(CC)n(Cc2ccnc(C(F)(F)F)c2)n1` .
result: 70

----------
# Tested on: foxtail, giant
# assay.method.text: Test A preemergence
# Assay type: in vivo, Setaria faberii
# run.conditions: Preemergence, 1000 g ai/ha; 0 to 100 scale, 0 no effect, 100 complete control
For each entry below, report its Foxtail, Giant plant response rating value.
One number for each entry.

Worked set:
> print(dat)
                                   compound                      observation.type  observed.result
1  CCc1cc(C(=O)N(C)C)nn1Cc1cccc(OC(F)(F)F)c1 [Compound 56]  Foxtail, Giant plant response rating               10
2  CCc1cc(C(=O)NCCC(F)(F)F)nn1Cc1cccc(OC(F)(F)F)c1 [Compound 55]  Foxtail, Giant plant response rating               90
3  C=CCNC(=O)c1cc(CC)n(Cc2cccc(C(F)(F)F)c2)n1 [Compound 44]  Foxtail, Giant plant response rating               50
4  CCc1cc(C(=O)NCC(C)C)nn1Cc1cccc(C(F)(F)F)c1 [Compound 49]  Foxtail, Giant plant response rating              100
5  CCCc1cc(C(=O)NCC)nn1Cc1cccc(C(F)(F)F)c1 [Compound 29]  Foxtail, Giant plant response rating               80

Now look at this one.
query: Write down the reported Foxtail, Giant plant response rating of CCc1cc(C(=O)NCCC(F)(F)F)nn1Cc1cccc(C(F)(F)F)c1 [Compound 51] , test system: foxtail, giant.
result: 80

----------
# Tested on: blackgrass
# assay.method.text: Test C preemergence
# Format: in vivo, Alopecurus myosuroides
# run.conditions: preemergence, 125 g ai/ha; 13 to 15 days; scale 0 to 100, 0 = no effect, 100 = complete control
For each entry below, report its Plant response rating, Blackgrass value.
Numbers only.

> print(dat)
                         chemical.structure  observed.result
1  CCc1cc(C(=O)NC2CC2)nn1Cc1cc(C(F)(F)C(F)(F)F)nn1C               70

Each compound below has a reported value. Please supply its Plant response rating, Blackgrass.
1. CCOc1cc(C(=O)NC2CC2)nn1Cc1ccnc(C(F)(F)F)c1
2. CCOc1cc(C(=O)NC(C)C)nn1Cc1ccnc(C(F)(F)F)c1
3. CCCc1cc(C(=O)NOCC)nn1Cc1ccnc(C(F)(F)F)c1
4. CCCNC(=O)c1cc(CC)n(Cc2ccnc(OC(F)F)c2)n1

result:
1. 90
2. 90
3. 90
4. 98
